- Test system: nude mice, HT29 intrarenal xenograft, tumor weight T/C
- PROTOCOL_DESCRIPTION: NCI In Vivo Anticancer Drug Screen. Data for tumor model HT29;CX-1 Human Adenocarcinoma (MER+) (intrarenal inoculation) in NU/NU Swiss (nude) mice
- RUN_PARAMETERS: endpoint: mean tumor weight change; dose: 150.0 mg/kg/injection; schedule: Q04DX004 (sc); vehicle: saline with Tween-80; higher = larger tumour
Inconclusive results are not listed.
Reported values of T/C for individual entries

Here is how some compounds turned out for T/C.
>>> value("BrC1c2cccc3cccc(c23)C1Br (stereo unspecified)")
"186 % of control"
>>> value("Clc1cc(Cl)c(C[N+]23CN4CN(CN(C4)C2)C3)cc1Cl")
"68 % of control"
>>> value("O=C(Nc1cccc(Cl)c1)ON1C(=O)C2C(C1=O)C1(Cl)C(Cl)C(Cl)C2(Cl)C1(Cl)Cl (stereo unspecified)")
"90 % of control"

Task item: Recorded T/C of O=C(C/C(=N\C(=S)Nc1cc(C(F)(F)F)ccc1Cl)NO)N1CCCC1 , please.
Reply: 49 % of control

Task item: Here is the next compound: Nc1nc(N)c2c(ccc3c2ccn3Cc2cccc([N+](=O)[O-])c2)n1
Reply: 54 % of control

Task item: Here is the next compound: CC(=O)ON(C(C)=O)c1ccc(C(N)=O)cc1
Reply: 77 % of control

----------
Reported values of T/C for individual entries
- System: nude mice, HT29 intrarenal xenograft, tumor weight T/C
- PROTOCOL_DESCRIPTION: NCI In Vivo Anticancer Drug Screen. Data for tumor model HT29;CX-1 Human Adenocarcinoma (MER+) (intrarenal inoculation) in NU/NU Swiss (nude) mice
- RUN_PARAMETERS: endpoint: mean tumor weight change; dose: 12.5 mg/kg/injection; schedule: Q04DX004 (sc); vehicle: saline with Tween-80; higher = larger tumour
Inconclusive results are not listed.

>>> value("CCOC(=O)Nc1cc2c(c(N)n1)N=C(c1ccccc1)CN2")
"90 % of control"

Task item: Recorded T/C of Cc1c(CNc2ccc(C(=O)NC(CC(=O)O)C(=O)O)cc2)ccc2nc(N)nc(N)c12 (stereo not drawn) , please.
Reply: 41 % of control

Task item: Here is the next molecule: C[n+]1cccc(NC(=O)c2ccc(NC(=O)C34CCC(C(=O)Nc5ccc(C(=O)Nc6ccc[n+](C)c6)cc5)(CC3)CC4)cc2)c1
Reply: 118 % of control

Task item: Here is the next molecule: O=C1C=C[C@H](O)[C@@]2(CO)O[C@@H]12
Reply: 82 % of control

Task item: Here is the next molecule: C[CH2][Sn]([CH2]C)([CH2]C(=O)OC)[CH2]C(=O)OC
Reply: 79 % of control

Task item: Here is the next molecule: Nc1nc(N)c2c(ccc3c2ccn3Cc2cccc([N+](=O)[O-])c2)n1
Reply: 78 % of control

Task item: Here is the next molecule: CSc1ccc2c(c1)C(N1CCN(C)CC1)Cc1ccccc1S2 (stereo not drawn)
Reply: 80 % of control

Task item: Here is the next molecule: Cc1cc(NCCCCCCCNc2cc(C)nc3cc(N)ccc23)c2ccc(N)cc2n1
Reply: 32 % of control

----------
Reported values of T/C for individual entries
- System: nude mice, HT29 intrarenal xenograft, tumor weight T/C
- PROTOCOL_DESCRIPTION: NCI In Vivo Anticancer Drug Screen. Data for tumor model HT29;CX-1 Human Adenocarcinoma (MER+) (intrarenal inoculation) in NU/NU Swiss (nude) mice
- RUN_PARAMETERS: endpoint: mean tumor weight change; dose: 2.0 mg/kg/injection; schedule: Q01DX010 (sc); vehicle: saline; higher = larger tumour
Records with an inconclusive call do not appear.

>>> value("COC12C(COC(N)=O)C3=C(C(=O)C(C)=C(N)C3=O)N1CC1C2N1C (stereo unspecified)")
"114 % of control"
>>> value("CC[C@H]1CN2CCc3cc(OC)c(OC)cc3[C@@H]2C[C@@H]1C[C@H]1NCCc2cc(OC)c(OC)cc21")
"166 % of control"
>>> value("COc1cc([C@@H]2c3cc4c(c(O)c3C[C@H]3COC(=O)[C@@H]32)OCO4)cc(OC)c1OC")
"46 % of control"
>>> value("CO[C@H](C(=O)[C@@H](O)[C@@H](C)O)[C@@H]1Cc2cc3cc(OC4CC(OC5CC(O)C(O)C(C)O5)C(O)C(C)O4)c(C)c(O)c3c(O)c2C(=O)[C@H]1OC1CC(OC2CC(OC3CC(C)(O)C(O)C(C)O3)C(O)C(C)O2)C(O)C(C)O1 (stereo partly specified)")
"-80 % of control"
>>> value("Cc1c(N)nc(C(CC(N)=O)NCC(N)C(N)=O)nc1C(=O)NC(C(=O)NC(C)C(O)C(C)C(=O)NC(C(=O)NCCc1nc(-c2nc(C(=O)NCCCNC(C)c3ccccc3)cs2)cs1)C(C)O)C(OC1OC(CO)C(O)C(O)C1OC1OC(CO)C(O)C(OC(N)=O)C1O)c1cnc[nH]1 (stereo unspecified)")
"64 % of control"

Task item: Recorded T/C of O=NN(CCCl)C(=O)NCCCl , please.
Reply: 80 % of control

----------
Reported values of T/C for individual entries
- System: nude mice, HT29 intrarenal xenograft, tumor weight T/C
- PROTOCOL_DESCRIPTION: NCI In Vivo Anticancer Drug Screen. Data for tumor model HT29;CX-1 Human Adenocarcinoma (MER+) (intrarenal inoculation) in NU/NU Swiss (nude) mice
- RUN_PARAMETERS: endpoint: mean tumor weight change; dose: 25.0 mg/kg/injection; schedule: Q01DX010 (sc); vehicle: saline; higher = larger tumour
Inconclusive results are not listed.

Here is how some molecules turned out for T/C.
>>> value("Nc1cc2[nH]cnc2c(=O)[nH]1")
"62 % of control"
>>> value("CCCCNC(C)[C@]1(O)Cc2c(O)c3c(c(O)c2[C@@H](OC2CC(N)C(O)C(C)O2)C1)C(=O)c1c(OC)cccc1C3=O (stereo partly drawn)")
"94 % of control"
>>> value("Cc1c2ccncc2c(C)c2c1[nH]c1ccccc12")
"47 % of control"
>>> value("NC1=NCN(C2OC(CO)C(O)C2O)C(=O)N1 (stereo not drawn)")
"70 % of control"
>>> value("CNC(=O)ON(C(C)=O)C(=O)NC")
"75 % of control"
>>> value("C[N+](C)(C)c1ncnc2c1ncn2C1CCCO1 (stereo not drawn)")
"90 % of control"
>>> value("OCC1OC(n2cnc3c(=S)nc[nH]c32)C(O)C1O (stereo not drawn)")
"54 % of control"

With those in mind, consider the next molecule.
Task item: Recorded T/C of CC1(C)OC(=O)N(CO)C1=O , please.
Reply: 95 % of control

----------
- Test system: nude mice, HT29 intrarenal xenograft, tumor weight T/C
- PROTOCOL_DESCRIPTION: NCI In Vivo Anticancer Drug Screen. Data for tumor model HT29;CX-1 Human Adenocarcinoma (MER+) (intrarenal inoculation) in NU/NU Swiss (nude) mice
- RUN_PARAMETERS: endpoint: mean tumor weight change; dose: 100.0 mg/kg/injection; schedule: Q04DX004 (sc); vehicle: saline with Tween-80; higher = larger tumour
Results filed as inconclusive are left out.
MEASURE_NAME: T/C

Here is how some molecules turned out for T/C.
>>> value("O=C(O)C1Cc2nc[nH]c2CN1CO (centres undefined)")
"90 % of control"
>>> value("Clc1ccc2nnnn2n1")
"114 % of control"
>>> value("C=C(C)C(=NC(C)(C)C)Nc1ccccc1")
"52 % of control"
>>> value("COc1cc2c[n+](C)c3c4cc5c(cc4ccc3c2cc1OC)OCO5")
"48 % of control"
>>> value("COCCCNC1=C(C#N)C(=O)NC(c2cccc([N+](=O)[O-])c2)S1 (centres undefined)")
"91 % of control"
>>> value("O=S(=O)(CCl)OCCCl")
"105 % of control"

Task item: Recorded T/C of CC1=C(/C=C/C(C)=C/C=C/C(C)=C/CO)C(C)(C)CCC1 , please.
Reply: 82 % of control

Task item: Here is the next molecule: BrC[P+](CBr)(CBr)CBr
Reply: 57 % of control

----------
Reported values of T/C for individual entries
- Tested on: nude mice, HT29 intrarenal xenograft, tumor weight T/C
- PROTOCOL_DESCRIPTION: NCI In Vivo Anticancer Drug Screen. Data for tumor model HT29;CX-1 Human Adenocarcinoma (MER+) (intrarenal inoculation) in NU/NU Swiss (nude) mice
- RUN_PARAMETERS: endpoint: mean tumor weight change; dose: 300.0 mg/kg/injection; schedule: Q04DX004 (sc); vehicle: saline with Tween-80; higher = larger tumour
Inconclusive results are not listed.

Here is how some compounds turned out for T/C.
>>> value("CN=S(=O)(OCCCCCOS(=O)(=NC)c1ccccc1)c1ccccc1 (configuration not stated)")
"60 % of control"
>>> value("CC(=O)ON(C(C)=O)c1ccc(C(N)=O)cc1")
"60 % of control"
>>> value("CC(=O)Nc1ccc(O)c(O)c1")
"56 % of control"

Task item: GET /values?readout=T/C&system=nude mice, HT29 intrarenal xenograft, tumor weight T/C&item= CCCCCC#CC1OC12CCCCC2 (configuration not stated)
Reply: 62 % of control
